src = ChEMBL document CHEMBL1681732

Target: Neuromedin-K receptor (Homo sapiens, UniProt P29371)
Sequence (P29371 whole entry): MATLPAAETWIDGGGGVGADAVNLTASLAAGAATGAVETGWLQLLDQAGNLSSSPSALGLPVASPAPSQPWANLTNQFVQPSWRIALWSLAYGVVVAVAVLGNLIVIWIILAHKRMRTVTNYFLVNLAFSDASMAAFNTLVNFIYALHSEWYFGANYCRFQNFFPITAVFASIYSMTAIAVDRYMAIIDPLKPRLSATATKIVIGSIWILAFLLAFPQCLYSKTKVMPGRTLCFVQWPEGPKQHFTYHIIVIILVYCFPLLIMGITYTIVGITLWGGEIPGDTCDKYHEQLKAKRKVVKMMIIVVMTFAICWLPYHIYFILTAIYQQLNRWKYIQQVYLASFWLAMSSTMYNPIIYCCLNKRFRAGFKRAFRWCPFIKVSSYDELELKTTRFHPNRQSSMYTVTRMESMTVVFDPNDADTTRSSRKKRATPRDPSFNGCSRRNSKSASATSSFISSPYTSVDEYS
Assay: Antagonist activity at human NK3 receptor expressed in CHO cells assessed as inhibition of senktide-induced calcium flux by FLIPR assay
pEC50: −log10 of the molar value.
EXPERIMENTAL_ENDPOINT: pEC50

Example cases with answers are listed next.
*Q* Report pEC50 for CC[C@H](NC(=O)c1c([S+](C)[O-])c(-c2ccsc2)nc2ccccc12)c1ccccc1 (mixture of isomers) tested on Neuromedin-K receptor (Homo sapiens, UniProt P29371).
*A* 8.74

*Q* Again, but for CC[C@H](NC(=O)c1c(S(C)(=O)=O)c(-c2ccccc2)nc2ccccc12)c1ccccc1 (mixture of isomers)
*A* 7.85

*Q* Again, but for CC[C@H](NC(=O)c1c([S+]([O-])C(C)C)c(-c2ccccc2)nc2ccccc12)c1ccccc1 (mixture of isomers)
*A* 7.80

*Q* Again, but for C[S+]([O-])c1c(-c2ccccc2)nc2ccccc2c1C(=O)NC1(c2ccccc2)CC1 (racemic)
*A* 7.80

(A) C[S+]([O-])c1c(-c2ccccc2)nc2ccccc2c1C(=O)N[C@H](c1ccccc1)C1CC1 (mixture of isomers)
(B) CC[C@H](NC(=O)c1c([S+](C)[O-])c(-c2ccccc2)nc2cc(Cl)ccc12)c1ccccc1 (mixture of isomers)
*Q* Between A and B , which one has the lower reported pEC50 value? Provide the label of your selected option as the answer.
*A* A
